Reported Ki values, AChE (Electrophorus electricus).
Report the figure in µM without appending any unit label.

| input smiles | reported result |
| --- | --- |
| CCSc1nc2ccccc2n1Cc1nnc(-c2cccc(O)c2O)o1 | 121 |

input: Any idea what Ki came out for CCSc1nc2ccccc2n1Cc1nnc(-c2ccccc2OC)o1 on AChE (Electrophorus electricus)?
output: 112

input: Request body: readout Ki, system AChE (Electrophorus electricus), query CCSc1nc2ccccc2n1Cc1nnc(-c2ccc(N(CC)CC)cc2)o1 . Return the value.
output: 101

###

AChE (Electrophorus electricus): reported Ki for various compounds.
Sequence (O42275 24-633): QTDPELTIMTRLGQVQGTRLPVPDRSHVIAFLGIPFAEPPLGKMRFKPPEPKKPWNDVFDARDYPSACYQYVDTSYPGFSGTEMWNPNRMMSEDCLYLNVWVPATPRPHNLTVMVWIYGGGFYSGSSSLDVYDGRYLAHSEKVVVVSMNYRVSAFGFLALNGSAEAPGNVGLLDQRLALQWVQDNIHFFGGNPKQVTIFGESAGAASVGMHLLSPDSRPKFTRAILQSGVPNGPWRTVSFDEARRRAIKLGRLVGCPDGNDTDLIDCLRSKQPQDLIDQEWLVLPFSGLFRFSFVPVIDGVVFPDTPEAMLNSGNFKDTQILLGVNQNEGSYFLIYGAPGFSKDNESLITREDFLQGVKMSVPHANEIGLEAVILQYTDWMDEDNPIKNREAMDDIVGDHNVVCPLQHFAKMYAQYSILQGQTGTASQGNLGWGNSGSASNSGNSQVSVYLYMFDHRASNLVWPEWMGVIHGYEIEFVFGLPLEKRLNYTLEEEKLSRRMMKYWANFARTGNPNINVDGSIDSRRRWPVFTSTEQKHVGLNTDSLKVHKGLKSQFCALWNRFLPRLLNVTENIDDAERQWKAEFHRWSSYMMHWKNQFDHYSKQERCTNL
Return type: number; implicit unit µM.

| compound | output unit | Ki |
| --- | --- | --- |
| CCSc1nc2ccccc2n1Cc1nnc(-c2ccc(Cl)cc2)o1 [Compound 25] | µM | 83.2 |
| CCSc1nc2ccccc2n1Cc1nnc(-c2ccccc2O)o1 [Compound 31] | µM | 89.5 |
| CCSc1nc2ccccc2n1Cc1nnc(-c2cccc(OC)c2O)o1 [Compound 18] | µM | 98.8 |

With those in mind, consider the next compound.
input: Item CCOc1cccc(-c2nnc(Cn3c(SCC)nc4ccccc43)o2)c1O [Compound 19] has what recorded Ki?
output: 93.3
